assay summary: qHTS assay to identify small molecule antagonists of the TGF-beta/Smad signaling pathway - cell viability counter screen (AID 1346824); note: nearly all actives have a fitted effect of over 50% in size
assay setup: SBE-bla HEK293T viability, CellTiter-Glo luminescence; series mostly up to 76.8 µM
Results filed as inconclusive are left out. Active and inactive are the calls of the source. Calls come from the whole dose curve; as a rule, active = well fitted cell-killing curve with a large enough effect in the repeat runs; inconclusive = weak or mixed curves; inactive = flat fitted curve, though single readings scatter.
Log the outcome using a class from true (1) for active, false (0) for inactive

Some solved cases for reference:
molecule | group
CCC(N)(CO)CO | false (0)
CCN(CCC#N)c1ccc(N=Nc2c(Cl)cc([N+](=O)[O-])cc2Cl)cc1 | false (0)
CCN(CC)CCCC(C)Nc1c2ccc(Cl)cc2nc2ccc(OC)cc12 (stereo not given) | false (0)
CCN(Cc1cccnc1)C(=O)c1cccc(Cl)c1[C@]1(C)C(=O)N(Cc2ccc(OC)cc2OC)c2ccc(Cl)cc21 | false (0)
CCCCCCCC(=O)[O-].CCCCCCCC(=O)[O-].[Zn+2] | false (0)

Recorded test outcome, item `CC[C@H](c1ccc(O)cc1)[C@@H](CC)c1ccc(O)cc1`
false (0)

Same read-out for `[Cl][Au]([Cl])[Cl]` ?
false (0)

// same read-out, input: `C=CC(=O)OCCn1c(=O)n(CCOC(=O)C=C)c(=O)n(CCOC(=O)C=C)c1=O`
false (0)

Moving on to CC1=C(C(=O)OC(C)C)C(c2cccc([N+](=O)[O-])c2)C(C(=O)OC2CN(C(c3ccccc3)c3ccccc3)C2)=C(N)N1 (stereo not given)
false (0)

Try this molecule too: `Cc1cccc2c1cc1ccc3cccc4ccc2c1c34`
false (0)

// same read-out, input: `CC(C)(C)c1ccc(C(=O)CCCN2CCC(OC(c3ccccc3)c3ccccc3)CC2)cc1`
true (1)

Okay, and `CCCCCCCCCCCCCCCC(=O)OC[C@H](O)[C@H]1OC(=O)C(O)=C1O` ?
false (0)

Same for `Cc1cc(=O)oc2cc(N(C)C)ccc12`
false (0)
